# target.desc: ProfilerPro Kinase Selectivity Assay Kit kinases (Homo sapiens, UniProt P35968)
# Sequence (P35968 20-1356 limits assumed): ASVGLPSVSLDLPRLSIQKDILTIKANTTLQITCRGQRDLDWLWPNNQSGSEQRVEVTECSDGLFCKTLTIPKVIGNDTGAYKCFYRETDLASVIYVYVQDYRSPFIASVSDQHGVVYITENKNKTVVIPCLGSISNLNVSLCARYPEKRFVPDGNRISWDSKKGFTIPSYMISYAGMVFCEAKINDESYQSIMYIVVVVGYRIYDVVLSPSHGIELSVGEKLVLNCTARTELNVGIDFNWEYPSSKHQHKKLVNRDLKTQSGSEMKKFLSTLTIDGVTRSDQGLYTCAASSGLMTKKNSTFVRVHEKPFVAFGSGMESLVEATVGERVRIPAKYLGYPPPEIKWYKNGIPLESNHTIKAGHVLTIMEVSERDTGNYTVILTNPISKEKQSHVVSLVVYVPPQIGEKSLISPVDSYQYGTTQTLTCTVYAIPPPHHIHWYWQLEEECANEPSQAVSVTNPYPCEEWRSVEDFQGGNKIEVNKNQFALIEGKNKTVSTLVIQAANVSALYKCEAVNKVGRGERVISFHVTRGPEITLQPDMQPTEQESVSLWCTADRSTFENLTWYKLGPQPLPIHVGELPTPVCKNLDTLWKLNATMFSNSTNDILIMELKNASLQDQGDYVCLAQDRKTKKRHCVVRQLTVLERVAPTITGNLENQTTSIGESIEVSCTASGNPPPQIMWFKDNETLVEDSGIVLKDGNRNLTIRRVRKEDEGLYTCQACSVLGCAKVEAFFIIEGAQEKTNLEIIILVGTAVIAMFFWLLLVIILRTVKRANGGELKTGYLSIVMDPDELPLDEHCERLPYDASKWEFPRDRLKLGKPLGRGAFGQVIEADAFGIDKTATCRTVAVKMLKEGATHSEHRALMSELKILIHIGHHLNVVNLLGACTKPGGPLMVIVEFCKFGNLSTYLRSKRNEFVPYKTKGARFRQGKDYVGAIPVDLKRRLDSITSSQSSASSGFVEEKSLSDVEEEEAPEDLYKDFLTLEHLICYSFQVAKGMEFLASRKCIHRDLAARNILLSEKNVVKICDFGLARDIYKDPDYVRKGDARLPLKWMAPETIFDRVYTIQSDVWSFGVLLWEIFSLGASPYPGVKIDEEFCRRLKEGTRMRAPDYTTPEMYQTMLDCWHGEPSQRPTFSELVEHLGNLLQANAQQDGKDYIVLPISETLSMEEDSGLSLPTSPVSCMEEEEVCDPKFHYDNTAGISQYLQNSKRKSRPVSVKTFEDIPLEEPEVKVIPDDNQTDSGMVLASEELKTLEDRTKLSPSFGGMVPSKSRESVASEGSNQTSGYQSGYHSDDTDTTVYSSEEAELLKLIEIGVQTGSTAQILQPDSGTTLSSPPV
# Assay type: biochemical
# stated.conditions: KDR; 1 μM compound concentration
metric: POC (Percent of control) KDR (POC)

# compound, POC (Percent of control) KDR / POC
data = [
    ("Cc1nc(N)nc(-c2cc(CN3CCN(S(C)(=O)=O)CC3)cnc2Nc2cccc(O)c2)n1 [Example 30]", 102),
]

[1] Cc1nc(N)cc(-c2cccnc2Nc2cccc3[nH]ncc23)n1 [Example 27]
[2] c1cnc(Nc2cccc3[nH]ccc23)c(-c2ncnc3[nH]cnc23)c1 [Example 19]
Between 1 and 2 , which one shows the smaller POC (Percent of control) KDR number? Give the label of your selection.
2

From: patent US8772480B2
